target: AGO2 L192P (Homo sapiens, UniProt Q9UKV8 1-859, L192P;S387D;S824A;S828D;S831D;S834A); experiment: RNA Bind-n-Seq (nitrocellulose filter binding and sequencing); miR-122 guide loaded in AGO2; 60 min incubation; 30 mM Tris pH 8.0, 100 mM potassium acetate, 2 mM magnesium acetate, 0.5 mM TCEP, 0.005% NP-40, 0.01 mg/ml yeast tRNA; 3 nM AGO2-miR-122, 100 nM RNA library; 60; high values mean tight binding; conditions: protein: recombinant; tags: His6 (N-terminal, pFastBac HTA)
Sequence (Q9UKV8 whole entry L192P/S387D/S824A/S828D/S831D/S834A): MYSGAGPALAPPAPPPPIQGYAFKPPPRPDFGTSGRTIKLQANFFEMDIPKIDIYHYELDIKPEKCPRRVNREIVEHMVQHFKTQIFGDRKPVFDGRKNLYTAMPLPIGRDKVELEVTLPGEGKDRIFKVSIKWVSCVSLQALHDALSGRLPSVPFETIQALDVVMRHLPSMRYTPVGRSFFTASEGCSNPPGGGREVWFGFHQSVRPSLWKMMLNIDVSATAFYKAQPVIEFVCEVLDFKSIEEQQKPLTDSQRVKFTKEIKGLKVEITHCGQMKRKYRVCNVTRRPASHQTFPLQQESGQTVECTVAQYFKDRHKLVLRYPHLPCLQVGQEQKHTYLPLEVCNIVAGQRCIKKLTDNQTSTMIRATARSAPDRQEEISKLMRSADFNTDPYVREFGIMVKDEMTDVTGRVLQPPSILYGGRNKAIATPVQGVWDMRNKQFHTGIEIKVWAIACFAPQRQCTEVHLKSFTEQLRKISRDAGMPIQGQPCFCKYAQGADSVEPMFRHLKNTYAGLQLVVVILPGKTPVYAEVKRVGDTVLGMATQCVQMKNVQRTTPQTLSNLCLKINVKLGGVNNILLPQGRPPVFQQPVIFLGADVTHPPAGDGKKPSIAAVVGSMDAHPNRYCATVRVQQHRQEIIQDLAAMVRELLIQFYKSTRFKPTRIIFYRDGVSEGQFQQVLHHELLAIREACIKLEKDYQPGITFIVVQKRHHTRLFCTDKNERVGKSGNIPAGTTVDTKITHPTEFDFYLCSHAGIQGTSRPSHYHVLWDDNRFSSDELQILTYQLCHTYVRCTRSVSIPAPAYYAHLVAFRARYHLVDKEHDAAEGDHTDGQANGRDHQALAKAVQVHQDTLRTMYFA
VALUE_TYPE: binding signal

Could you please provide reported binding signal for GTGTTTTG (ssRNA, constant regions annealed to DNA blockers; guide miR-122 5' phosphate) RNA 1: GAGUUCUACAGUCCGACGAUCCCAACGUGUUUUGCACCUGGAAUUCUCGGGUGCCAA RNA 2: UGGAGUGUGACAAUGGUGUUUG DNA 1: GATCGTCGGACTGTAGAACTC DNA 2: TTGGCACCCGAGAATTCCA ? Thanks!
0.344 fold enrichment over input

Consider the binder GCGCCCTA (ssRNA, constant regions annealed to DNA blockers; guide miR-122 5' phosphate) RNA 1: GAGUUCUACAGUCCGACGAUCCCAACGCGCCCUACACCUGGAAUUCUCGGGUGCCAA RNA 2: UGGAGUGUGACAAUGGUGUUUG DNA 1: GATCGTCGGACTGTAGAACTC DNA 2: TTGGCACCCGAGAATTCCA and give its recorded binding signal.
0.492 fold enrichment over input

Tell me binding signal reported for GTACTTTG (ssRNA, constant regions annealed to DNA blockers; guide miR-122 5' phosphate) RNA 1: GAGUUCUACAGUCCGACGAUCCCAACGUACUUUGCACCUGGAAUUCUCGGGUGCCAA RNA 2: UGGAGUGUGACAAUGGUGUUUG DNA 1: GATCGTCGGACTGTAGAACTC DNA 2: TTGGCACCCGAGAATTCCA
0.365 fold enrichment over input

Report binding signal for ATGTTTTG (ssRNA, constant regions annealed to DNA blockers; guide miR-122 5' phosphate) RNA 1: GAGUUCUACAGUCCGACGAUCCCAACAUGUUUUGCACCUGGAAUUCUCGGGUGCCAA RNA 2: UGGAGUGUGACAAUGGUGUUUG DNA 1: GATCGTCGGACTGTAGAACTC DNA 2: TTGGCACCCGAGAATTCCA
0.387 fold enrichment over input

Return reported binding signal. Input binder: GCATTTTA (ssRNA, constant regions annealed to DNA blockers; guide miR-122 5' phosphate) RNA 1: GAGUUCUACAGUCCGACGAUCCCAACGCAUUUUACACCUGGAAUUCUCGGGUGCCAA RNA 2: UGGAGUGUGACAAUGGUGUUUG DNA 1: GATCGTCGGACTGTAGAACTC DNA 2: TTGGCACCCGAGAATTCCA
0.476 fold enrichment over input

Please look at this binder and report its binding signal: GCATCTCG (ssRNA, constant regions annealed to DNA blockers; guide miR-122 5' phosphate) RNA 1: GAGUUCUACAGUCCGACGAUCCCAACGCAUCUCGCACCUGGAAUUCUCGGGUGCCAA RNA 2: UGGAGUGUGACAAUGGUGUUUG DNA 1: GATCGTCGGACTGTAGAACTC DNA 2: TTGGCACCCGAGAATTCCA
0.321 fold enrichment over input

Report measured binding signal; entry is GCGTCCTG (ssRNA, constant regions annealed to DNA blockers; guide miR-122 5' phosphate) RNA 1: GAGUUCUACAGUCCGACGAUCCCAACGCGUCCUGCACCUGGAAUUCUCGGGUGCCAA RNA 2: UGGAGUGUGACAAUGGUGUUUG DNA 1: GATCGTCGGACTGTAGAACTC DNA 2: TTGGCACCCGAGAATTCCA
0.38 fold enrichment over input

Please report binding signal for the following binder: GCACTTTA (ssRNA, constant regions annealed to DNA blockers; guide miR-122 5' phosphate) RNA 1: GAGUUCUACAGUCCGACGAUCCCAACGCACUUUACACCUGGAAUUCUCGGGUGCCAA RNA 2: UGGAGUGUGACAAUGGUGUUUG DNA 1: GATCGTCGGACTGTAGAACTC DNA 2: TTGGCACCCGAGAATTCCA
0.493 fold enrichment over input

Give the reported binding signal for this binder. GTACTCCA (ssRNA, constant regions annealed to DNA blockers; guide miR-122 5' phosphate) RNA 1: GAGUUCUACAGUCCGACGAUCCCAACGUACUCCACACCUGGAAUUCUCGGGUGCCAA RNA 2: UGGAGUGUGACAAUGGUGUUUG DNA 1: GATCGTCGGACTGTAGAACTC DNA 2: TTGGCACCCGAGAATTCCA
1.62 fold enrichment over input

Provide measured binding signal value, entry: GTGCCTCG (ssRNA, constant regions annealed to DNA blockers; guide miR-122 5' phosphate) RNA 1: GAGUUCUACAGUCCGACGAUCCCAACGUGCCUCGCACCUGGAAUUCUCGGGUGCCAA RNA 2: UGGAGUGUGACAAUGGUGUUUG DNA 1: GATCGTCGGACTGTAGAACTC DNA 2: TTGGCACCCGAGAATTCCA
0.431 fold enrichment over input

Dear colleague, please send me the reported binding signal for ATGCCCCA (ssRNA, constant regions annealed to DNA blockers; guide miR-122 5' phosphate) RNA 1: GAGUUCUACAGUCCGACGAUCCCAACAUGCCCCACACCUGGAAUUCUCGGGUGCCAA RNA 2: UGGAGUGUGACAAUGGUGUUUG DNA 1: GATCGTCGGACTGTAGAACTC DNA 2: TTGGCACCCGAGAATTCCA when you can.
0.494 fold enrichment over input

Return the recorded binding signal value; entry: ACGTTCCG (ssRNA, constant regions annealed to DNA blockers; guide miR-122 5' phosphate) RNA 1: GAGUUCUACAGUCCGACGAUCCCAACACGUUCCGCACCUGGAAUUCUCGGGUGCCAA RNA 2: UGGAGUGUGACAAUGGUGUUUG DNA 1: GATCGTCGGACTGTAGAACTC DNA 2: TTGGCACCCGAGAATTCCA
0.361 fold enrichment over input

Read off the recorded binding signal for GTGTCTCA (ssRNA, constant regions annealed to DNA blockers; guide miR-122 5' phosphate) RNA 1: GAGUUCUACAGUCCGACGAUCCCAACGUGUCUCACACCUGGAAUUCUCGGGUGCCAA RNA 2: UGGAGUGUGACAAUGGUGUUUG DNA 1: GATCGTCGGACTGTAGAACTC DNA 2: TTGGCACCCGAGAATTCCA
0.486 fold enrichment over input

Name the recorded binding signal of the binder listed here: ATATCCTA (ssRNA, constant regions annealed to DNA blockers; guide miR-122 5' phosphate) RNA 1: GAGUUCUACAGUCCGACGAUCCCAACAUAUCCUACACCUGGAAUUCUCGGGUGCCAA RNA 2: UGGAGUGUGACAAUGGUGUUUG DNA 1: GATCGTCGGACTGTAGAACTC DNA 2: TTGGCACCCGAGAATTCCA
0.467 fold enrichment over input

Kindly indicate its recorded binding signal. Item: ACATTCCA (ssRNA, constant regions annealed to DNA blockers; guide miR-122 5' phosphate) RNA 1: GAGUUCUACAGUCCGACGAUCCCAACACAUUCCACACCUGGAAUUCUCGGGUGCCAA RNA 2: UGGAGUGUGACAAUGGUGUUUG DNA 1: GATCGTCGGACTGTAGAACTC DNA 2: TTGGCACCCGAGAATTCCA
1.03 fold enrichment over input

Data credit: paper PMC12529666
